Form field: LD50 (one value per entry).
- Experiment: Acute Toxicities
- Conditions Used: mouse, in vivo, ip; intraperitoneal, aqueous solution; male ddY mice
Property Name: LD50

molecule="CC1=CC(=O)[C@@H](O)[C@]2(C)[C@H]3[C@@]4(O)OC[C@@]35[C@@H](C[C@@H]12)OC(=O)[C@H](O)[C@@]5(O)[C@@]1(CO1)[C@H]4O [IIf, 13β,18-Epoxy-13,18-dihydroeurycomanone]" result="5.5 mg/kg"
molecule="CC1=CC(=O)[C@@H](O)[C@]2(C)[C@H]3[C@@]4(O)OC[C@@]35[C@@H](C[C@@H]12)OC(=O)C[C@H]5[C@]1(CO1)[C@H]4O [IIa, 13α,18-Epoxy-13,18-dihydroailanthone]" result="> 100 mg/kg"
molecule="CC1=CC(=O)[C@@H](O)[C@]2(C)[C@H]3[C@@]4(O)OC[C@@]35[C@@H](C[C@@H]12)OC(=O)C[C@H]5C(C)[C@H]4O (stereo partly drawn) [IId, 13,18-dihydroailanthone]" result="> 30 mg/kg"
molecule="CC1CC(=O)[C@@H](O)[C@]2(C)[C@H]3[C@@]4(O)OC[C@@]35[C@@H](C[C@@H]12)OC(=O)C[C@H]5C(C)[C@H]4O (stereo partly drawn) [IIc, 3,4,13,18-Tetrahydroailanthone]" result="> 30 mg/kg"
molecule="CC1=CC(=O)[C@@H](O)[C@]2(C)[C@H]3[C@@]4(O)OC[C@@]35[C@@H](C[C@@H]12)OC(=O)C[C@H]5[C@@]1(CO1)[C@H]4O [IIb, 13β,18-Epoxy-1,3,18-dihydroailanthone]" result="> 30 mg/kg"
molecule="C=C1[C@@H](O)[C@]2(O)OC[C@]34[C@H]2[C@@]2(C)[C@H](O)C(=O)C=C(C)[C@@H]2C[C@H]3OC(=O)[C@H](O)[C@@]14O [Ib, eurycomanone]" result="18.9 mg/kg"
